B1: Centrosome-associated zinc finger protein Cp190 (Drosophila melanogaster (Fruit fly)), Q24478 (parent)
chain: MGEVKSVKVDNWGVFFLQKLQNFFNKTDYCDLTLQFRDNSQLKVHRLVLSACTDYFNVLEQTCEIVDDALIMPNEFQADVVVPIVNFMYTGTLEFELKMYGKLLRTAKEMNMTVLLKLLEAHRRTMENVNRQQRPPSPKGIRRRTVGQPSSGLPQQRVLGPSPQSRNVATPIAQRANTQRGSTGNTMSRTSGGSNRSPYGDSSNVKQEPTSPFEQLRKGYNNNKRPAQTSLLSPPSKKPSLEEVKEFAEQQRMRKQIAAEYGDNDPEYDGGMLYDDVHAGDDDDDDMPPQPSTSKQQSPQGTQTQLEHGSTTIILKQDSPSQTPTIIVKDSSNAKLNHTKIIAEVLRQYPHIVKGHKNIKLKIMPNTPAAPTEKSAPATVKPPANQSSATTSPHKKLHVSFKADKSTPLITAQQKAASSQQKSGTSQTTGNQGTGANPPANTAAAQKRRIDSKTMHALIAQGAENTTGPWLCLRCGVNGRPISIPSYRGFRRHLINTHKETIDPALCEHCGWRSVNNRELHFHMYMEHQTKSLLYTFAECALCNQSYRTKGELEAHINEVHTDDNKQQCIYCNKVFEQELQLYRHMKSYHKEQALEDGIIDETDEEFLGSQDEEEEAEGDEEQEPEQTGKVRILSDISLPATSAITVQQAQQEQLQEEDVEQVQQEVKFVGADGNEVELTDEQRKEILSQLNQQQAGATAGGVVMVLSEPEAEHVKQETDEKSLAGTEEEYDDSQIYSELGAADSVESAKKNIADESKESIDNLEWAENLIAESEEQSNKEPKSDKPRDDISEKLKELTGDWTEDENDDDVDDKPATAELASELANKDPEPTVHEEEDDIDLALQSLHKGPEEATEEKASEESVTSADDAVDAVPNINSQPEKMDVDSEAADEKASKAEVQIKKEAELENDQEEFIKEDSPIPHSDSVAELREAVTASEGEDDVHLEADNIRKELLDELIAEAEKPDQEKDIVQSEENATTEALDRSVTDEDDLVPPTQVSTEQMEIDEPAAEKAAENNEDTRTADEKEAVEDKPNQTQDVTTAEKPTLESAKAGDEATSGEAASVDKVKSLISEWGDDDEDEDENGVSAAAKEEL
partner: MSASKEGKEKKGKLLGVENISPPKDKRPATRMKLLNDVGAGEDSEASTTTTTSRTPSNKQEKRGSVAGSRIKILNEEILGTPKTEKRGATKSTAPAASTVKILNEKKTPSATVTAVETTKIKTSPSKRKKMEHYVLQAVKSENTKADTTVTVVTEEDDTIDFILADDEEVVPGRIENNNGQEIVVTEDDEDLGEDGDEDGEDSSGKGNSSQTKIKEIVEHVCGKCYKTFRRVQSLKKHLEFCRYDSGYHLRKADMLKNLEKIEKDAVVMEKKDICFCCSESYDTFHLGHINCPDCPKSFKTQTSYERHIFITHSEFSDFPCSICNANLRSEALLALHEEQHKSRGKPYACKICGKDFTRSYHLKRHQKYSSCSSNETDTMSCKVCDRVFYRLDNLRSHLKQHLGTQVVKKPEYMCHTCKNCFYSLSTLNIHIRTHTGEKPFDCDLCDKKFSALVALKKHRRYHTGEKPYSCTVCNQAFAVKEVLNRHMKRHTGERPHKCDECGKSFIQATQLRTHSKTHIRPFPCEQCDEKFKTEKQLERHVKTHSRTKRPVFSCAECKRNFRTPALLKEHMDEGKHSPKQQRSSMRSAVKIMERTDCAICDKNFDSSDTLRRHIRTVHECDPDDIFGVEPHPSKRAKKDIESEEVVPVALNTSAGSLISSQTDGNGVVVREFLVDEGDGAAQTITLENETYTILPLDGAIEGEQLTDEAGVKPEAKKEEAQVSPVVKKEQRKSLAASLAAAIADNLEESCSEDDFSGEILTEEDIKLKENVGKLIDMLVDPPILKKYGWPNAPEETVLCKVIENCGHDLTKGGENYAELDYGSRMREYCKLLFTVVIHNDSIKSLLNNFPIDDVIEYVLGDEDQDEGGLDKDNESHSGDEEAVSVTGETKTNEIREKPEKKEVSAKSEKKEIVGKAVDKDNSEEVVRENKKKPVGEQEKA

Variants of: B1
Details: with suhw_drome su(Hw)
PROPERTY_NAME: effect of a mutation on the interaction

K19A with no effect
V114A with no effect
K117S with no effect
V7A with no effect

Proceeding to the next variant to report its effect of a mutation on the interaction.
Given item V114N , the value recorded as its effect of a mutation on the interaction is with no effect
